Entries and their AntiCD3/CD28 (CD69+ CD4 T cells) repeat 2
TARGET OR SYSTEM: chimeric BTLA of humanised-BTLA mice (human extracellular region, murine transmembrane and signaling … (human; mouse, UniProt Q7TSA3 184-306, limits assumed); also: test concentration or dose not given here
Sequence (Q7TSA3 other isoform, or with tags, fused parts or gaps mutant limits assumed): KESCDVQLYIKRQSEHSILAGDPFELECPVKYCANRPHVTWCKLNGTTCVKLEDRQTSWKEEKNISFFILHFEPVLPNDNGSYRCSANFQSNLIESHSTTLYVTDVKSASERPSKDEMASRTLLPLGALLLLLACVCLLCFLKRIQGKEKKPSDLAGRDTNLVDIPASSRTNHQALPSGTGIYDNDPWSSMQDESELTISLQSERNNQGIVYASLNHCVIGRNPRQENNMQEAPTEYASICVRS
PROTOCOL TEXT: cell-based or functional assay
PROPERTY: AntiCD3/CD28 (CD69+ CD4 T cells) repeat 2 (% inhibition)

- BINDER: "831 (antibody, IgG1, V domains shown) VH: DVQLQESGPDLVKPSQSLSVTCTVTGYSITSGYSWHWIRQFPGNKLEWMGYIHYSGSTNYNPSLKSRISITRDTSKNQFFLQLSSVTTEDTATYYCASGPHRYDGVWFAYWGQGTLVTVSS VL: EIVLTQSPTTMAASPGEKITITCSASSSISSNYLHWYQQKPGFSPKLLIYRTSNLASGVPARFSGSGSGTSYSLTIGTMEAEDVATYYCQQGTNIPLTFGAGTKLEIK"
  VAL: 53
- BINDER: "8B4 (antibody, IgG1, V domains shown, mIgG1) VH: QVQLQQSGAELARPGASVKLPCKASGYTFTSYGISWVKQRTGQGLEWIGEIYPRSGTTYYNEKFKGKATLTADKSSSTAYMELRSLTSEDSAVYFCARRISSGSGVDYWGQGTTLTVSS VL: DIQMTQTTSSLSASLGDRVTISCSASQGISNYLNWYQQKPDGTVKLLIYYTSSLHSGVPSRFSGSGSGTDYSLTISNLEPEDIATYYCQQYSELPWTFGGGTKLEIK"
  VAL: 47
- BINDER: "11.5.1 D265A (antibody, V domains shown) VH: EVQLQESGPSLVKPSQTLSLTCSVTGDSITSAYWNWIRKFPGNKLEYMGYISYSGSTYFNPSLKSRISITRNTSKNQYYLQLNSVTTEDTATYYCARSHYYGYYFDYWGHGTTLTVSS VL: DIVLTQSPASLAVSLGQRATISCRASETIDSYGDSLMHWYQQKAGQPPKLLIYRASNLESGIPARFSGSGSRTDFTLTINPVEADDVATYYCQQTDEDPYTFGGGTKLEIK"
  VAL: -26
- BINDER: "11.5.1 (antibody, V domains shown, mouse IgG1k hybridoma antibody) VH: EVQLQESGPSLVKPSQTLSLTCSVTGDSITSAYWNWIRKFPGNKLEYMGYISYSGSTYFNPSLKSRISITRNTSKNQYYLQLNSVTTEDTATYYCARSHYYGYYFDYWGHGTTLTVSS VL: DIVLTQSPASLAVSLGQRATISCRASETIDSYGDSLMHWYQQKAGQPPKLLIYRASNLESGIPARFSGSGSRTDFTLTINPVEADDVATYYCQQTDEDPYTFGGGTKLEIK"
  VAL: 47
- BINDER: "15C6 (antibody, IgG1, V domains shown, mIgG1) VH: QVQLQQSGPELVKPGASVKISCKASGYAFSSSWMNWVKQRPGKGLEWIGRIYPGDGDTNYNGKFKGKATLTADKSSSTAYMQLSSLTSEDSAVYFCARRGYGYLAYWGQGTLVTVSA VL: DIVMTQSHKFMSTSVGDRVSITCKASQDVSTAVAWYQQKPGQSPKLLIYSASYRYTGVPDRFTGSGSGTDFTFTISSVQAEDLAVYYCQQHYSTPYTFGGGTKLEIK"
  VAL: 19
